Target: FLAG-tagged Vanin-1 (AA 22-493, T26I) (Homo sapiens, UniProt O95497, T26I)
Construct: FLAG-tagged Vanin-1 (AA 22-493, T26I, produced internally); FLAG
Experiment: Vanin-1 enzymatic assay (pantothenic acid formation, RapidFire mass spectrometry)
Conditions: 0.1 nM FLAG-tagged Vanin-1, 3 μM D-pantethine, room temperature; geometric mean in case of multiple measurements; read-out: VNN-1 IC50
Description: Description of Biological Properties Vanin-1 Enzymatic Assay: The test compounds are dissolved in 100% DMSO at a concentration of 10 mM and in a first step diluted in DMSO to a concentration of 5 mM, followed by serial dilution steps in 100% DMSO. Dilution factor and number of dilution steps may vary according to needs. […]
pIC50: −log10 of the molar value.
Some compounds, each annotated with its measured pIC50.
ENDPOINT NAME: pIC50

COMPOUND | TEST RESULT
CC(=O)N(C)[C@H]1CCN(C(=O)c2ccc(NCc3c(Cl)nc4sccn34)nc2)C1 [Example 5.4] | 9.92
C[C@H](Nc1ccc(C(=O)N2CC[C@H](N(C)C(=O)C3CC(F)(F)C3)C2)cn1)c1cnc2[nH]ccc2c1 [Example 1.6] | 9.92
C[C@H](Nc1ccc(C(=O)N2CC[C@H](N(C)C(=O)C3(C)CCC3)C2)cn1)c1cnc2[nH]ccc2c1 [Example 1.8] | 9.85
CC(=O)N(C)[C@H]1CCN(C(=O)c2ccc(N[C@@H](C)c3ccc4nn(C)cc4c3)nc2)C1 [Example 5.38] | 9.44

----------
Molecular target: FLAG-tagged Vanin-1 (AA 22-493, T26I) (Homo sapiens, UniProt O95497, T26I)
Construct: FLAG-tagged Vanin-1 (AA 22-493, T26I, produced internally); FLAG
Test: Vanin-1 enzymatic assay (pantothenic acid formation, RapidFire mass spectrometry)
Conditions: 0.1 nM FLAG-tagged Vanin-1, 3 μM D-pantethine, room temperature; geometric mean in case of multiple measurements; read-out: VNN-1 IC50

MOLECULE | IC50 / nM
CN(C(=O)C1CC(F)(F)C1)[C@H]1CCN(C(=O)c2ccc(NCc3cnc4ccccn34)nc2)C1 [Example 1.12] | 0.1
CC(=O)N(C)[C@H]1CCN(C(=O)c2ccc(NCc3ccnc4[nH]ccc34)nc2)C1 [Example 5.13] | 0.28
CN(C(=O)C1(C)CCC1)[C@H]1CCN(C(=O)c2ccc(NCc3cnc4ccccn34)nc2)C1 [Example 1.14] | 0.18
CC(=O)N(C)[C@H]1CCN(C(=O)c2ccc(NCc3c[nH]c4ccccc34)nc2)C1 [Example 5.16] | 0.62
CC(=O)N(C)[C@H]1CCN(C(=O)c2ccc(N[C@@H](C)c3ccc4nc[nH]c4c3)nc2)C1 [Example 5.36] | 0.22
CC(=O)N(C)[C@H]1CCN(C(=O)c2ccc(N[C@@H](C)c3cccc4[nH]ncc34)nc2)C1 [Example 7.1] | 0.33
C[C@H](Nc1ccc(C(=O)N2CC[C@H](N(C)C(=O)C3(C#N)CC3)C2)cn1)c1cnc2[nH]ccc2c1 [Example 1.7] | 0.13
CC1(C#N)CCN(C(=O)c2ccc(NCc3ccnc4[nH]ccc34)nc2)C1 (stereo not shown) [Example 1.19] | 0.3
CC(=O)N(C)[C@H]1CCN(C(=O)c2ccc(NCc3n[nH]c4c3CCCC4)nc2)C1 [Example 5.28] | 2.65
C[C@H](Nc1ccc(C(=O)N2CC[C@H](N(C)C(=O)C3CCC3)C2)cn1)c1cnc2[nH]ccc2c1 [Example 1.5] | 0.11
CC(=O)N(C)[C@H]1CCN(C(=O)c2ccc(NCc3ccc4[nH]ncc4c3)nc2)C1 [Example 5.22] | 0.82
C[C@H](Nc1ccc(C(=O)N2CC[C@H](N(C)C(=O)C3CC3)C2)cn1)c1cnc2[nH]ccc2c1 [Example 1.2] | 0.09
CC(=O)N(C)[C@H]1CCN(C(=O)c2ccc(N[C@@H](C)c3ccc4[nH]ncc4c3)nc2)C1 [Example 5.8] | 0.16
CC1(C#N)CCN(C(=O)c2ccc(NCc3csc4ccccc34)nc2)C1 (stereo not shown) [Example 9.2] | 1.14
CC(=O)N(C)[C@H]1CCN(C(=O)c2ccc(NCc3c(C)ccc4nc(C)[nH]c34)nc2)C1 [Example 5.40] | 0.54
O=C(c1ccc(NCc2cnc3ccccn23)nc1)N1CC[C@H](N2CCCC2=O)C1 [Example 1.15] | 0.19
CC(=O)N(C)[C@H]1CCN(C(=O)c2ccc(NCc3cccc4c3ccn4C)nc2)C1 [Example 2.5] | 0.67
CC(=O)N(C)[C@H]1CCN(C(=O)c2ccc(NCc3ccc4[nH]ccc4c3)nc2)C1 [Example 5.17] | 0.64
CC(=O)N(C)[C@H]1CCN(C(=O)c2ccc(NCc3ccc4onc(N)c4c3)nc2)C1 [Example 5.34] | 9.43
CC(=O)N(C)[C@H]1CCN(C(=O)c2ccc(NCc3cncc4ccsc34)nc2)C1 [Example 5.1] | 0.04
CC(=O)N(C)[C@H]1CCN(C(=O)c2ccc(NCc3cnc4ccccn34)nc2)C1 [Example 5.12] | 0.23
CC(=O)N(C)[C@H]1CCN(C(=O)c2ccc(NC(C)c3cccc4[nH]ccc34)nc2)C1 (stereo partly shown) [Example 5.10] | 0.18
CC(=O)N(C)[C@H]1CCN(C(=O)c2ccc(NCc3n[nH]c4ccc(Cl)cc34)nc2)C1 [Example 2.1] | 0.23
C[C@H](Nc1ccc(C(=O)N2CC[C@H](N(C)C(=O)C3(C#N)CC3)C2)cn1)c1cnc2[nH]ccc2c1 [Example 1.3] | 0.1
CC(=O)N(C)[C@H]1CCN(C(=O)c2ccc(NCc3cccc4[nH]ccc34)nc2)C1 [Example 5.6] | 0.13
CC(=O)N(C)[C@H]1CCN(C(=O)c2ccc(NCc3cnc4ccsc4c3)nc2)C1 [Example 2.4] | 0.29
O=C(c1ccc(NCc2cnc3ccccn23)nc1)N1CC[C@H](N2CCOC2=O)C1 [Example 1.1] | 0.24
CC(=O)N(C)[C@H]1CCN(C(=O)c2ccc(NCc3ccc4ncccc4c3)nc2)C1 [Example 5.26] | 1.62
C[C@H](Nc1ccc(C(=O)N2CC[C@H](N(C)C(=O)C3(C)CCC3)C2)cn1)c1cnc2[nH]ccc2c1 [Example 1.11] | 0.2
CC(=O)N(C)[C@H]1CCN(C(=O)c2ccc(NCc3ccc4nc(N)[nH]c4c3)nc2)C1 [Example 5.18] | 0.69
O=C(c1ccc(NCc2csc3ccccc23)nc1)N1CC[C@H](N2CCCC2=O)C1 [Example 8.2] | 0.21

----------
Biological target: FLAG-tagged Vanin-1 (AA 22-493, T26I) (Homo sapiens, UniProt O95497, T26I)
Construct: FLAG-tagged Vanin-1 (AA 22-493, T26I, produced internally); FLAG
Sequence (O95497 22-493 T26I): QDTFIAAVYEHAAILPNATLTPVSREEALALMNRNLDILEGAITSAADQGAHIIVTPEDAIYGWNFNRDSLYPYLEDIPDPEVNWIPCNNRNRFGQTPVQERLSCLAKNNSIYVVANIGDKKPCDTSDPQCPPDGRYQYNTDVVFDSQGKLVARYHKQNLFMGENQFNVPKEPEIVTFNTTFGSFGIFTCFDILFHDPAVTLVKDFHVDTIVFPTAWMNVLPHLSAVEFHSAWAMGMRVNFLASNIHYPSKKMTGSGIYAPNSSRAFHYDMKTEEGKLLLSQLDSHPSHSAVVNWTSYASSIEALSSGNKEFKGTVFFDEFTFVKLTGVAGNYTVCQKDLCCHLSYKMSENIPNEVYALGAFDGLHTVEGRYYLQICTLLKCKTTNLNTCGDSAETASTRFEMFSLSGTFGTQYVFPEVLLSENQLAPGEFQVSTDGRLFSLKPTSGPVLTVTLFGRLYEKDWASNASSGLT
Assay: Vanin-1 enzymatic assay (pantothenic acid formation, RapidFire mass spectrometry)
Settings: 0.1 nM FLAG-tagged Vanin-1, 3 μM D-pantethine, room temperature; geometric mean in case of multiple measurements; read-out: VNN-1 IC50
pIC50: −log10 of the molar value.

SMILES STRING | pIC50
O=C(c1ccc(NCc2csc3ccccc23)nc1)N1CC[C@H](N2CCOC2=O)C1 | 9.70
CC(=O)N(C)[C@H]1CCN(C(=O)c2ccc(N[C@@H](C)c3ccc4c(cnn4C)c3)nc2)C1 | 9.62
CC(=O)N(C)[C@H]1CCN(C(=O)c2ccc(NCc3ccc4nc[nH]c4c3)nc2)C1 | 9.85
CC(=O)N(C)[C@H]1CCN(C(=O)c2ccc(NCc3cnn4cccnc34)nc2)C1 | 8.56
CC(=O)N(C)[C@H]1CCN(C(=O)c2ccc(N[C@@H](C)c3cnc4[nH]ccc4c3)nc2)C1 | 9.74
CC(=O)N(C)[C@H]1CCN(C(=O)c2ccc(N[C@@H](C)c3cccc4c3cnn4C)nc2)C1 | 10.15
CC(=O)N(C)[C@H]1CCN(C(=O)c2ccc(NCc3cc(C)cc4[nH]ncc34)nc2)C1 | 9.85
CC(=O)N(C)[C@H]1CCN(C(=O)c2ccc(N[C@H](C)c3ccc4c(cnn4C)c3)nc2)C1 | 8.04
